- System: Fibroblast
- Measurement description: Multiplex assay against human fibroblast
- Format: toxicity, cell-based
- Measurement context: 12 h, 1 µM, compound concentration 1 uM, replicate 2
Label true when Population Pyknosed Nuclei (%) >= 10%; otherwise false.

Form field: Population Pyknosed Nuclei (%) at least 10%? Entry: COc1cccc([C@@H](C)NCCCc2ccccc2Cl)c1.Cl [TECALCET HYDROCHLORIDE]
false

Form field: Population Pyknosed Nuclei (%) at least 10%? Entry: CN1CCCC(n2nc(Cc3ccc(Cl)cc3)c3ccccc3c2=O)CC1.Cl (stereo not drawn) [AZELASTINE HYDROCHLORIDE]
false

Form field: Population Pyknosed Nuclei (%) at least 10%? Entry: `CCN(CC)CCCCNc1ncc2cc(-c3cc(OC)cc(OC)c3)c(NC(=O)NC(C)(C)C)nc2n1`
true

Form field: Population Pyknosed Nuclei (%) at least 10%? Entry: `OC1(c2ccc(Cl)cc2)CCN(Cc2c[nH]c3ccccc23)CC1`
false

Form field: Population Pyknosed Nuclei (%) at least 10%? Entry: `CC(C)(O)CNc1ncc(-c2ccnc(Nc3ccnc(Cl)c3)n2)c(CC2CC2)n1`
true

---
Form field: Population Pyknosed Nuclei (%) at least 10%? Entry: `Cc1nc(-c2ccc(-c3ccc(C(=O)N4CCc5cc6c(cc54)C4(CCN(C)CC4)CO6)cc3)c(C)c2)no1`
true

Form field: Population Pyknosed Nuclei (%) at least 10%? Entry: `CN(C)CC#Cc1ccc(OCCCc2sc(N3CCc4cccc(C(=O)Nc5nc6ccccc6s5)c4C3)nc2C(=O)O)c(F)c1`
false

Form field: Population Pyknosed Nuclei (%) at least 10%? Entry: `c1cn2cc(-c3ccc4cn[nH]c4c3)nc(Nc3ccc(N4CCOCC4)cc3)c2n1`
false
